- Tested on: Bacillus licheniformis (BL)
- protocol.description: Effectiveness of peptides on spiked fuel samples (aqueous layer)
- Assay type: cell-based
- Set-up: key: (+) =1 (implying peptide activity in fuel environment); (X) = 0 (implying no activity in the desired range, indicated by microbial proliferation); Fuel x = -1(implying no activity in fuel environment)
- study.conditions: initial screening in spiked fuel
endpoint.label: activity considering MIC value/efficacy upon fuel co-incubation

- smiles.entry: "CC[C@H](C)[C@H](N)C(=O)N[C@@H](CC(C)C)C(=O)N[C@H](C(=O)N[C@@H](Cc1c[nH]c2ccccc12)C(=O)N[C@@H](CCCCN)C(=O)N[C@@H](Cc1c[nH]c2ccccc12)C(=O)N1CCC[C@H]1C(=O)N[C@@H](Cc1c[nH]c2ccccc12)C(=O)N[C@@H](Cc1c[nH]c2ccccc12)C(=O)N1CCC[C@H]1C(=O)N[C@@H](Cc1c[nH]c2ccccc12)C(=O)N[C@@H](CCCNC(=N)N)C(=O)N[C@@H](CCCNC(=N)N)C(=O)O)C(C)C"
  result: "+"
- smiles.entry: "CC[C@H](C)[C@H](N)C(=O)N[C@@H](CC(C)C)C(=O)N[C@@H](Cc1c[nH]c2ccccc12)C(=O)N[C@@H](Cc1c[nH]c2ccccc12)C(=O)N[C@@H](CCCCN)C(=O)N[C@@H](Cc1c[nH]c2ccccc12)C(=O)N1CCC[C@H]1C(=O)N[C@@H](Cc1c[nH]c2ccccc12)C(=O)N[C@@H](Cc1c[nH]c2ccccc12)C(=O)N1CCC[C@H]1C(=O)N[C@@H](Cc1c[nH]c2ccccc12)C(=O)N[C@@H](CCCNC(=N)N)C(=O)N[C@@H](CCCNC(=N)N)C(=O)O"
  result: "+"
